target: BTK (Homo sapiens); experiment: biochemical; conditions: read-out: BTK inhibition (%), 0.75 uM BTK, […] probe 3l, 15 min preincubation
value_type: inhibition at 10 µM (%)
Numbers only, in %.

Examples with their reported inhibition at 10 µM follow.
>>> value_measured("COCCCN1CCC(NC(=O)c2cc(Cl)c(N)c3c2OCC3)CC1 [PCM-0095543]")
-16.3
>>> value_measured("CC1=NN(c2ccccc2)C(=O)C1 [PCM-0006147]")
6.2
>>> value_measured("CO[C@@H]1[C@@H](OC)[C@H](C)[C@@](O)(CC(=O)O)O[C@H]1[C@H](C)[C@H]1O[C@@]2(CC[C@@](C)([C@H]3CC[C@@](C)([C@@H]4O[C@@H]([C@H]5O[C@](C)(O)[C@H](C)C[C@@H]5C)C[C@@H]4O[C@@H]4C[C@H](OC)[C@@H](OC)[C@H](C)O4)O3)O2)C[C@H](O)[C@H]1C [PCM-0216004]")
-20.8
>>> value_measured("COc1cc(C)c2c(=O)c(-c3ccccc3)coc2c1 [PCM-0216420]")
32.4
>>> value_measured("CCOC(=O)N[C@@H]1CC[C@@H]2[C@@H](C1)C[C@H]1C(=O)O[C@H](C)[C@H]1[C@H]2/C=C/c1ccc(-c2cccc(F)c2)cn1 [PCM-0215561]")
26.3
>>> value_measured("CNC(=O)c1ccccc1Nc1nc(Nc2ccc(N3CCOCC3)cc2OC)ncc1Cl [PCM-0095447]")
67.6
>>> value_measured("C[C@H](CN(C)C)Oc1nc(Nc2cc3cccc(Cl)c3cn2)cnc1C#N [PCM-0215773]")
-3.4
>>> value_measured("CC(=O)O[C@H]1C[C@@]2(C)[C@@H](C[C@@H](O)[C@H]3[C@@]4(C)CC[C@@H](O)[C@@H](C)[C@@H]4CC[C@@]32C)/C1=C(\\CCC=C(C)C)C(=O)O [PCM-0214838]")
6.2
>>> value_measured("O=c1cc(-c2ccccc2)oc2cc(O)cc(O)c12 [PCM-0088446]")
34.2
>>> value_measured("COc1ncnc(NS(=O)(=O)c2ccc(N)cc2)c1OC [PCM-0086280]")
0.8

Give measured inhibition at 10 µM for every item shown.
1. CC(C)OC(=O)C1=CN(C(=O)c2ccc(F)c(F)c2)CC(C)(C)c2c1[nH]c1ccccc21 [PCM-0095387]
2. Nc1ccn(C[C@@H](CO)OCP(=O)(O)O)c(=O)n1 [PCM-0095189]
3. CO/N=C(\C(=O)N[C@@H]1C(=O)N2C(C(=O)O)=C(CSc3nnnn3C)CS[C@H]12)c1csc(N)n1 [PCM-0214827]
4. CC1(C)S[C@@H]2[C@H](NC(=O)[C@H](N)c3ccccc3)C(=O)N2[C@H]1C(=O)OCOC(=O)[C@@H]1N2C(=O)C[C@H]2S(=O)(=O)C1(C)C [PCM-0216243]

Solution:
[3.4, -12.8, 8.6, -11.6]

###

molecular target: BTK (Homo sapiens, UniProt Q06187); experiment: biochemical; conditions: read-out: BTK inhibition (%), 0.75 uM BTK, […] probe 3l, 15 min preincubation
Sequence (Q06187 402-655 limits assumed): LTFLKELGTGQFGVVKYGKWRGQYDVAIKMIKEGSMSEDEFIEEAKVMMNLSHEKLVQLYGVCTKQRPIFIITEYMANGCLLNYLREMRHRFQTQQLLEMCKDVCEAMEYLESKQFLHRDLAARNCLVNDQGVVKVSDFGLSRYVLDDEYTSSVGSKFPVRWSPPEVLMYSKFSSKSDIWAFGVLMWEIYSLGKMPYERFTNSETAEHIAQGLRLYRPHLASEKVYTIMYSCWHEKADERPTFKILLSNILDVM
So basically: inhibition at 10 µM at 30% or higher? That is YES. Lower than 30%? That is NO.

Some entries whose results are on file:
>>> cat("C=C[C@](C)(O)CC[C@@H]1[C@@]2(C)CCCC(C)(C)[C@@H]2CC[C@@]1(C)O")
"NO"
>>> cat("CC[C@H](C)[C@H](N)C(=O)N[C@H]1CSSC[C@@H](C(=O)N[C@H](C(N)=O)[C@@H](C)O)NC(=O)[C@H](CCCN=C(N)N)NC(=O)[C@H](Cc2cnc[nH]2)NC(=O)[C@H](Cc2cnc[nH]2)NC(=O)CNC(=O)[C@H](Cc2c[nH]c3ccccc23)NC(=O)[C@H](CC(=O)O)NC(=O)[C@H](CCC(N)=O)NC(=O)[C@H](C(C)C)NC(=O)[C@H](C(C)C)NC1=O")
"NO"
>>> cat("OCC1(O)COc2cc(O)ccc2-c2cc(O)c(O)cc2C1 (stereo not shown)")
"YES"
>>> cat("Cc1cc(C)c(Nc2ccnc(Nc3ccc(C#N)cc3)n2)c(C)c1")
"NO"

Problem: Decide: inhibition at 10 µM of CN(C)c1ccc2nc3ccc(=[N+](C)C)cc-3sc2c1 >= 30%?
Solution: YES

Problem: Decide: inhibition at 10 µM of CO/N=C(\C(=O)N[C@@H]1C(=O)N2C(C(=O)OCOC(=O)C(C)(C)C)=C(C)CS[C@H]12)c1csc(N)n1 >= 30%?
Solution: NO
